- test_description: Stability test (high temperature, high humidity and light tests)
- Assay type: physicochemical
- run_parameters: High temperature (60° C.), 10 days
readout_type: Purity (%)
Report the figure in % without appending any unit label.

Here's what some known entries look like.
{"columns": ["compound", "Purity (%)"],
 "data": [
  ["COC(=O)C1=C(CN2CCN3C(=O)N(c4ccc(CCC(=O)O)cc4F)C[C@@H]3C2)N=C(c2nccs2)N[C@H]1c1ccc(F)cc1Cl.O=P(O)(O)O [Phosphate crystal form C of the compound having Formula (Ia)]", 60.31],
  ["COC(=O)C1=C(CN2CCN3C(=O)N(c4ccc(CCC(=O)O)cc4F)C[C@@H]3C2)N=C(c2nccs2)N[C@H]1c1ccc(F)cc1Cl.Cl", 99.22],
  ["COC(=O)C1=C(CN2CCN3C(=O)N(c4ccc(CCC(=O)O)cc4F)C[C@@H]3C2)N=C(c2nccs2)N[C@H]1c1ccc(F)cc1Cl.CS(=O)(=O)O", 98.68]
]}

Dear colleague, I am looking for the recorded Purity (%) of the following compound: COC(=O)C1=C(CN2CCN3C(=O)N(c4ccc(CCC(=O)O)cc4F)C[C@@H]3C2)N=C(c2nccs2)N[C@H]1c1ccc(F)cc1Cl.O=P(O)(O)O [Phosphate crystal form A of the compound having Formula (Ia)]
98.39

What does the record list as Purity (%) for `CN(C)C=O.COC(=O)C1=C(CN2CCN3C(=O)N(c4ccc(CCC(=O)O)cc4F)C[C@@H]3C2)NC(c2nccs2)=N[C@H]1c1ccc(F)cc1Cl` ?
97.76
